- System: early erythroid cells (Eryth I)
- protocol_description: MLTA, ErythI: concentration-response and QSP model fit
- Format: cell-based, human
- condition_summary: Homo sapiens, 144 h; dose 1 nM, 6 days, normalized to vehicle control; read-out: ErythI normalized cell count
reported_property: activity at 0.001 µM

Before answering, review these 2 worked examples.
INSERT INTO assay_data (molecule, measured_result) VALUES
  ('CCc1cnn2c(NCc3ccc[n+]([O-])c3)cc(N3CCCC[C@H]3CCO)nc12 [dinaciclib]', '104%'),
  ('CS(=O)(=O)N1CCN(Cc2cc3nc(-c4cccc5[nH]ncc45)nc(N4CCOCC4)c3s2)CC1 [pictilisib]', '107%');

Below: the item to evaluate.
Prompt: // Input: CC(=O)O[C@@]12CO[C@@H]1C[C@H](O)[C@@]1(C)C(=O)[C@H](O)C3=C(C)[C@@H](OC(=O)[C@H](O)[C@@H](NC(=O)OC(C)(C)C)c4ccccc4)C[C@@](O)([C@@H](OC(=O)c4ccccc4)[C@H]21)C3(C)C [docetaxel] . Output its activity at 0.001 µM only.
Response: 110%

====

- Test system: hematopoietic stem cells (HSCs)
- protocol_description: Multi-lineage toxicity assay (MLTA), HSCs: concentration-response and QSP model fit
- Type: cell-based, human
- condition_summary: Homo sapiens, Hematopoietic stem cell, 144 h; dose 0.2 nM, 6 days, normalized to vehicle control; read-out: HSCs normalized cell count
Mark True only when activity at 0.0002 µM stays strictly below 90%. Values equal to the cut-off are False.

For orientation, consider the following solved cases.
INSERT INTO assay_data (compound, target_or_test_system, answer_label) VALUES
  ('CC(=O)O[C@@]12CO[C@@H]1C[C@H](O)[C@@]1(C)C(=O)[C@H](O)C3=C(C)[C@@H](OC(=O)[C@H](O)[C@@H](NC(=O)OC(C)(C)C)c4ccccc4)C[C@@](O)([C@@H](OC(=O)c4ccccc4)[C@H]21)C3(C)C', 'hematopoietic stem cells (HSCs)', 'False'),
  ('O=C1CCC(N2C(=O)c3ccccc3C2=O)C(=O)N1 (centres unmarked) [thalidomide]', 'hematopoietic stem cells (HSCs)', 'True');

--- query ---
Prompt: A record lists CC(=O)O[C@H]1C(=O)[C@@]2(C)[C@H]([C@H](OC(=O)c3ccccc3)[C@]3(O)C[C@H](OC(=O)[C@H](O)[C@@H](NC(=O)c4ccccc4)c4ccccc4)C(C)=C1C3(C)C)[C@]1(OC(C)=O)CO[C@@H]1C[C@@H]2O . Is its activity at 0.0002 µM below 90%?
Response: False

====

- Test system: granulocytes (Gran-lin)
- protocol_description: MLTA, Gran: concentration-response and QSP model fit
- Assay type: cell-based, human
- condition_summary: Homo sapiens; QSP model parameter, sheet EC50_parameters; Gran
reported_property: EC50 (nM)
One number for each entry, in nM.

Before answering, review these 3 worked examples.
INSERT INTO measurements (compound, reported_property, value_units, measured_result) VALUES
  ('Nc1cccc2c1CN(C1CCC(=O)NC1=O)C2=O (stereo not shown) [Lenalidomide]', 'EC50', 'nM', 3180),
  ('Nc1ccn([C@@H]2O[C@H](CO)[C@@H](O)[C@@H]2O)c(=O)n1 [Cytarabine]', 'EC50', 'nM', 32.7),
  ('Cc1sc2c(c1C)C(c1ccc(Cl)cc1)=N[C@@H](CC(=O)Nc1ccc(O)cc1)c1nnc(C)n1-2 [OTX015]', 'EC50', 'nM', 364);

Below: the item to evaluate.
Prompt: // Input: CC(C)C[C@H](NC(=O)[C@H](Cc1ccccc1)NC(=O)c1cnccn1)B(O)O [Bortezomib] . Output its EC50 only.
Response: 68.6

These data points were gathered from paper PMC7402526.
